Tested on: SK-N-MC
Test: In vitro adenylate cyclase response in neuroblastoma cell line SK-N-MC
Assay type: functional, cell-based
Conditions: Homo sapiens
result_type: EC50 (nM)
// units = nM; emit number, no label

Notebook: Oc1ccc2c(c1O)Cc1cccc3c1C2CNC3 (racemic) , EC50 read as 190
